# Test system: A431 human squamous cancer cells
# Measurement notes: Cytotoxicity, MTT method
# Stated conditions: read-out: Cytotoxicity, half maximal inhibitory concentration (IC50); A431, MTT
# From the text: […]
Measured quantity: IC50 (nM)

[[record]]
molecule = "C/C(=C\\c1csc(C)n1)[C@@H]1C[C@@H]2O[C@]2(C)CCC[C@H](C)[C@H](O)[C@@H](C)C(=O)C(C)(C)[C@@H](O)CC(=O)O1 [epothilon B, reference compound]"
readout_value = 0.05


###

# Test system: ovary cancer SK-OV-3
# Measurement notes: Cytotoxicity, MTT method
# Stated conditions: read-out: Cytotoxicity, half maximal inhibitory concentration (IC50); SK-OV-3, MTT
Measured quantity: IC50 (nM)

[[record]]
compound = "C/C(=C\\c1csc(C)n1)[C@@H]1C[C@@H]2O[C@]2(C)CCC[C@H](C)[C@H](O)[C@@H](C)C(=O)C(C)(C)[C@@H](O)CC(=O)O1 [epothilon B, reference compound]"
measured_quantity = "IC50"
unit_info = "nM"
readout_value = 0.09


###

# Tested on: human endocervical adenocarcinoma KB 3.1
# Measurement notes: Cytotoxicity, MTT method
# Stated conditions: read-out: Cytotoxicity, half maximal inhibitory concentration (IC50); KB 3.1, MTT
Measured quantity: IC50 (nM)

[[record]]
compound = "C/C(=C\\c1csc(C)n1)[C@@H]1C[C@@H]2O[C@]2(C)CCC[C@H](C)[C@H](O)[C@@H](C)C(=O)C(C)(C)[C@@H](O)CC(=O)O1 [epothilon B, reference compound]"
readout_value = 0.03


###

So I've got MIC readings for Mucor hiemalis, take a look.
Measured quantity: MIC

[[record]]
structure_string = "CCCC(=O)O[C@H]1c2cc(C)cc(O)c2C(=O)C2=C(O)[C@H]3C=C[C@]21Cc1cc(O)c2c(c13)O[C@@](C(=O)OC)([C@@H](O)CCC(=O)O)CC2=O"
measured_quantity = "MIC"
readout_value = "66.7 µg/mL"

[[record]]
structure_string = "CCCC(=O)O[C@H]1c2cc(C)cc(O)c2C(=O)C2=C(O)[C@H]3C=C[C@]21Cc1cc(O)c2c(c13)O[C@@](C(=O)OC)([C@@H]1CCC(=O)O1)CC2=O"
measured_quantity = "MIC"
readout_value = "66.7 µg/mL"

[[record]]
structure_string = "COC(=O)[C@]12Oc3c(c(O)cc4c3[C@@H]3C=C[C@]5(C4)C(=C3O)C(=O)c3c(O)cc(C)cc3[C@@H]5OC(C)=O)C(=O)C1=C(O)CC[C@@H]2O"
measured_quantity = "MIC"
readout_value = "66.7 µg/mL"


###

# Measurement notes: Cytotoxicity, MTT method
# Stated conditions: human, A549 lung cancer cells
Returns: string. Value is condition met if measured IC50 is below 1000 nM, and condition not met if it is greater than or equal to it.

[[record]]
compound = "COC(=O)[C@]12Oc3c(c(O)cc4c3[C@@H]3C=C[C@]5(C4)C(=C(O)c4c(O)cc(C)cc4[C@@H]5O)C3=O)C(=O)C1=C(O)CC[C@@H]2O [Compound 8, Xanthoquinodin B4]"
class_assignment = "condition not met"

[[record]]
compound = "CCCC(=O)O[C@H]1c2cc(C)cc(O)c2C(=O)C2=C(O)[C@H]3C=C[C@]21Cc1cc(O)c2c(c13)O[C@@]1(C(=O)OC)C(=C(O)CC[C@@H]1O)C2=O [Compound 2, Xanthoquinodin B10]"
class_assignment = "condition met"

[[record]]
compound = "CCCC(=O)O[C@H]1c2cc(C)cc(O)c2C(=O)C2=C(O)[C@H]3C=C[C@]21Cc1cc(O)c2c(c13)O[C@@](C(=O)OC)([C@@H](O)CCC(=O)O)CC2=O [Compound 7, Xanthoquinodin B15]"
class_assignment = "condition not met"

[[record]]
compound = "CCCC(=O)O[C@H]1c2cc(C)cc(O)c2C(=O)C2=C(O)[C@H]3C=C[C@]21Cc1cc(O)c2c(c13)O[C@@](C(=O)OC)([C@@H]1CCC(=O)O1)CC2=O [Compound 6, Xanthoquinodin B14]"
class_assignment = "condition not met"

[[record]]
compound = "CCCC(=O)O[C@H]1c2cc(C)cc(O)c2C(=O)C2=C(O)[C@H]3C=C[C@]21Cc1cc(O)c2c(c13)O[C@]1(C(=O)OC)C(=C(O)CC[C@@H]1O)C2=O [Compound 3, Xanthoquinodin B11]"
class_assignment = "condition met"


Entry source: paper PMC7712541
